Hey, just so you know, these numbers are from patent US20180051082A1.

Biological target: T1, monomeric soluble human PD1-Avi-His (human, UniProt Q15116 25-170)
T1 construct: extracellular domain; not shown: Avi tag and His tag at the C-terminus
T1 sequence (Q15116 25-170): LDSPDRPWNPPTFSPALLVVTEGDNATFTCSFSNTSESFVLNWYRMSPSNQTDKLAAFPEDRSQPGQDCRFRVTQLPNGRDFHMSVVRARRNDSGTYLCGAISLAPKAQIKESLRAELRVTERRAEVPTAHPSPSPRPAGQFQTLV
Assay: SPR (BIACORE T200), antibody captured on anti-human IgG, monomeric PD1-Avi-His flowed, 1:1 fit
Listed below: kon values for each entry.
quantity_name: kon (M⁻¹ s⁻¹)

binder	quantity_name	value_reported
APE1963 (antibody, human IgG1, V domains shown, expressed from HEK 293 cells as human IgG1) VH: EVQLLESGGGLVQPGGSLRLSCAASGFTFSSYTMSWVRQAPGKGLEWVSVISSGGNSAYYPDSVQGRFTISRDNSKNTLYLQMNSLRAEDTAVYYCAKEYYGSSHFAYWGQGTLVTVSS VL: EIVLTQSPATLSLSPGERATLSCRASESVDNFGISFMSWYQQKPGQAPRLLIYAASNPGSGIPARFSGSGSGTDFTLTISSLEPEDFAVYYCQQSKEVPYTFGQGTKLEIK	kon	58000
APE1924 (antibody, human IgG1, V domains shown, expressed from HEK 293 cells as human IgG1) VH: EVQLLESGGGLVQPGGSLRLSCAASGFTFSSYTMSWVRQAPGKGLEWVSVISSGGNYAYYPDSVQGRFTISRDNSKNTLYLQMNSLRAEDTAVYYCAKEHYGTSHFAYWGQGTLVTVSS VL: EIVLTQSPATLSLSPGERATLSCRASESVDNFGISFMSWYQQKPGQAPRLLIYAASNPGSGIPARFSGSGSGTDFTLTISSLEPEDFAVYYCQQSKEVPYTFGQGTKLEIK	kon	180000
APE1922 (antibody, human IgG1, V domains shown, expressed from HEK 293 cells as human IgG1) VH: EVQLLESGGGLVQPGGSLRLSCAASGFTFSSYTMSWVRQAPGKGLEWVSVISSGGDSAYYPDSVQGRFTISRDNSKNTLYLQMNSLRAEDTAVYYCAKEHYGTSHFAYWGQGTLVTVSS VL: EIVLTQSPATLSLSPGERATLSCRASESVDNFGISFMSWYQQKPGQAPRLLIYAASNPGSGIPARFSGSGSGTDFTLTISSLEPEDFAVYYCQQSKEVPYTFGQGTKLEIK	kon	130000
